Target: limbic D-2 dopamine receptor (Rattus norvegicus, UniProt P61169)
Sequence (P61169 whole entry): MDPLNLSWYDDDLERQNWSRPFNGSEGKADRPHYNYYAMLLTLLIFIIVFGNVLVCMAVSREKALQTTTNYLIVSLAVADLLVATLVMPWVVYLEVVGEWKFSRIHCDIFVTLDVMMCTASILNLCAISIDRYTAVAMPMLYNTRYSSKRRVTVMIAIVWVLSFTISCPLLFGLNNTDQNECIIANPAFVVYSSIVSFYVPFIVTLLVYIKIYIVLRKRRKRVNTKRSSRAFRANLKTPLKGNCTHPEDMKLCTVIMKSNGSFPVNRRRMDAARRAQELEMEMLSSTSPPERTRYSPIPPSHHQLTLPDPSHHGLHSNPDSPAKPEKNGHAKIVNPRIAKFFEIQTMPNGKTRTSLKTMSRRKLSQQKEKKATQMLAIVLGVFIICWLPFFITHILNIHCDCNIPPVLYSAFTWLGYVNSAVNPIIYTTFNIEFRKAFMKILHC
Test: inhibition of limbic D-2 dopamine receptor binding (3H-spiroperidol), in vitro
Settings: read-out: % Inhibition of H3-Spiroperidol Binding at 1 μM
Structures can show the parent of a compound that is named as a salt.
Outcome label depends on inhibition at 1 µM relative to 20%: at/above gives Satisfied, below gives Not satisfied.

1. C1=CC2C3CCC3C1C1CN(CCc3ccccn3)CC21 (stereo not shown) [Example 6, hydrate]; Not satisfied
2. C1=CC2C3CCC3C1C1CN(CCc3ccc4ccccc4n3)CC21 (stereo not shown) [Example 4, dihydrochloride, hydrate]; Not satisfied
3. O=C(CCCN1CC2C3C=CC(C4CC34)C2C1)c1ccc(F)cc1 (stereo not shown) [Example 10, hydrochloride, sesquihydrate]; Satisfied
4. Clc1cccc(N2CCN(CCCN3CC4CCC(CC4)C3)CC2)c1 [Example 8, dihydrochloride]; Not satisfied
5. O=C(CCCN1CC2C3C=CC(CCC3)C2C1)c1ccc(F)cc1 (stereo not shown) [Example 3, hydrochloride, hydrate]; Satisfied
6. Clc1cccc(N2CCN(CCCN3CC4C5C=CC(C6CCC56)C4C3)CC2)c1 (stereo not shown) [Example 9, trihydrochloride, dihydrate]; Satisfied
7. COc1ccccc1N1CCN(CCCN2CC3CCC(CC3)C2)CC1 [Example 13, hydrate]; Satisfied
